src = patent US10004732B2

target: PI 3-kinase delta (Homo sapiens, UniProt O00329); assay: TR-FRET Adapta assay, assay F; settings: read-out: Assay F PI3Kδ IC50
Sequence (O00329 whole entry): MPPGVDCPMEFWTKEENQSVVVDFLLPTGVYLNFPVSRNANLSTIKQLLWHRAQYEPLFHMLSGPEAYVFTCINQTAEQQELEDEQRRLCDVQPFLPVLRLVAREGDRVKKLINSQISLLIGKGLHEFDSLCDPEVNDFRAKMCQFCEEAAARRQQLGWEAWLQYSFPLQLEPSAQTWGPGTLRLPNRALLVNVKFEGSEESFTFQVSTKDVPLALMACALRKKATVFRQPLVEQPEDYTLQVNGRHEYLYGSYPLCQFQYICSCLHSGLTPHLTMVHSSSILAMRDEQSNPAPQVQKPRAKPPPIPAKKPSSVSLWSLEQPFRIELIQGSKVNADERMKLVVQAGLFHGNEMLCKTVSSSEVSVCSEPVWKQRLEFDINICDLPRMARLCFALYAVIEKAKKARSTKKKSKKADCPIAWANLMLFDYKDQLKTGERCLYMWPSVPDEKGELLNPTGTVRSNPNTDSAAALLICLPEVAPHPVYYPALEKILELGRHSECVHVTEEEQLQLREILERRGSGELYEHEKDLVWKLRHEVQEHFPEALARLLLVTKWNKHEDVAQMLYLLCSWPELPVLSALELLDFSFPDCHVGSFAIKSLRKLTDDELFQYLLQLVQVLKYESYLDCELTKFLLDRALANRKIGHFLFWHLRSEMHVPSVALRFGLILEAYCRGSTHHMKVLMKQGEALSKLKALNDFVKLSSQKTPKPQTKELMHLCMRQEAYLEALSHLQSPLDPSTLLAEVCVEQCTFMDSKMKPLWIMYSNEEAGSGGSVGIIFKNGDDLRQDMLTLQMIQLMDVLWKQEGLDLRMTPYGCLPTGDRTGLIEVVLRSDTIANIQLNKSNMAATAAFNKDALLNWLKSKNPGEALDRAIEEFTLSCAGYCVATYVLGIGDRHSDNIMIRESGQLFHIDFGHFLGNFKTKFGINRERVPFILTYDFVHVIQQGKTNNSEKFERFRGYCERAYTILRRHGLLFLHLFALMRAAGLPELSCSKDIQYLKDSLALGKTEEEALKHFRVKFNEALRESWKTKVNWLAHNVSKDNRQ
Sequence (P27986 461-568 partner): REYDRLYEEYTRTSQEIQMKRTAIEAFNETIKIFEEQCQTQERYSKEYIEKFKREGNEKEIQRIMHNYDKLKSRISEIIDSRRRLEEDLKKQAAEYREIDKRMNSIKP
Kindly state pIC50 for each of the entries shown.
Give bare numbers, as −log10 of the molar value.

{"COMPOUND": "Cc1cc(-c2nc(-c3cc(S(=O)(=O)NC4CCN(C(C)C)CC4)ccc3C)cnc2N)ccn1", "pIC50": 6.00}
{"COMPOUND": "Cc1ncc(-c2nc(-c3cc(S(=O)(=O)NCC(C)(C)CO)ccc3C)cnc2N)s1", "pIC50": 7.70}
{"COMPOUND": "Cc1ccc(S(=O)(=O)NC2CC3(CC(O)C3)C2)cc1-c1cnc(N)c(-c2cn(C)nc2C)n1 (single isomer, unassigned) [Example 9a]", "pIC50": 6.70}
{"COMPOUND": "CCOc1ccc(-c2nc(-c3cc(S(=O)(=O)NCCC(C)(C)O)ccc3C)cnc2N)cn1", "pIC50": 6.35}
{"COMPOUND": "CC(C)(O)CNS(=O)(=O)c1ccc(Cl)c(-c2cnc(N)c(-n3cncn3)n2)c1", "pIC50": 6.14}
{"COMPOUND": "Cc1cc(-c2nc(-c3cc(S(=O)(=O)NCC4(O)COC4)ccc3C)cnc2N)ccn1", "pIC50": 5.74}

Your task in this section: give pIC50 for each listed record.
1. Cc1ccc(S(=O)(=O)NCCC(C)(C)O)cc1-c1cnc(N)c(-c2ccoc2)n1
2. Cc1cc(-c2nc(-c3cc(S(=O)(=O)NC[C@H]4CCNC4)ccc3C)cnc2N)ccn1
3. Cc1cc(-c2nc(-c3cc(S(=O)(=O)NCCCCCO)ccc3C)cnc2N)ccn1
4. Cc1ccc(S(=O)(=O)NCC(C)(C)O)cc1-c1cnc(N)c(-c2cc(C3CC3)no2)n1

Result:
[6.02, 6.02, 6.47, 6.43]

For each entry beneath this line, provide reported pIC50.
1. Cc1nc(-c2nc(-c3cc(S(=O)(=O)NCC(C)(C)O)ccc3C)cnc2N)c(C)s1
2. Cc1ncc(-c2nc(-c3cc(S(=O)(=O)NCCCO)c(F)cc3C)cnc2N)s1
3. Cc1ccc(S(=O)(=O)NCC2(C(N)=O)CC2)cc1-c1cnc(N)c(-n2cncn2)n1
4. Cc1ccc(S(=O)(=O)NOC2CCOC2)cc1-c1cnc(N)c(-n2cncn2)n1 (stereo not shown)
5. Cc1ccc(S(=O)(=O)NCC2(CO)CC2)cc1-c1cnc(N)c(-n2cncn2)n1

Result:
1: 6.08; 2: 6.49; 3: 5.85; 4: 6.28; 5: 5.55

Ask: Fill blank: measured pIC50 of the compound `CC(C)(O)CCNS(=O)(=O)c1ccc(Cl)c(-c2cnc(N)c(-n3cncn3)n2)c1` is ____.
Result: 6.85

====

molecular target: PI 4-kinase beta (Homo sapiens); assay: Kinase Glo Luminescent Kinase Assay (Kglo), assay D; type: biochemical; conditions: read-out: Assay D PI4Kβ IC50
Sequence (Q9UBF8 whole entry): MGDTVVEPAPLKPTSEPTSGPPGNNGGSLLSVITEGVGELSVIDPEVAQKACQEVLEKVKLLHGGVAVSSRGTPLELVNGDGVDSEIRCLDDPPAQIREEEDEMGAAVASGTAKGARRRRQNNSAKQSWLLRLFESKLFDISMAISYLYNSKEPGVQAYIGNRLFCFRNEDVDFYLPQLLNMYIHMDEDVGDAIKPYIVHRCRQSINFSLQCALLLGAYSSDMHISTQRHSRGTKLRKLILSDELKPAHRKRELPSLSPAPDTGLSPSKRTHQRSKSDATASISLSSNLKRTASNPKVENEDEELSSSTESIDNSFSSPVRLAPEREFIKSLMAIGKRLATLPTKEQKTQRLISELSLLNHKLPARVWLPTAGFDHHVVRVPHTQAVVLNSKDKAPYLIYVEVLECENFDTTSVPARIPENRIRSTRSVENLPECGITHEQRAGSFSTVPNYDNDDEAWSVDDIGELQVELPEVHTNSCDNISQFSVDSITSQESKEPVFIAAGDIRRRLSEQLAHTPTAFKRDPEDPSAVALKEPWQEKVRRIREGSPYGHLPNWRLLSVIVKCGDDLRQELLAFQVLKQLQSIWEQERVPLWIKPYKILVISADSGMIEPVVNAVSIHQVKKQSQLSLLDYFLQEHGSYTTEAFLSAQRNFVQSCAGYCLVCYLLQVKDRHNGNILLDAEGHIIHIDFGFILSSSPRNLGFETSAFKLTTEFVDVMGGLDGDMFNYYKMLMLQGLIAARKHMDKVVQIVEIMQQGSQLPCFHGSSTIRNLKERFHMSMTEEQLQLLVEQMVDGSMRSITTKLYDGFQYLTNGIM
Decision: IC50 beneath 4 µM gives Condition met; IC50 meeting or exceeding 4 µM gives Condition not met.

Solved entries (count: 3):
{"COMPOUND": "Cc1ccc(S(=O)(=O)NC[C@H]2C[C@@H](O)C2)cc1-c1cnc(N)c(-c2nc(C3CC3)no2)n1 [Example 94]", "ASSIGNED_CLASS": "Condition not met"}
{"COMPOUND": "CCn1cc(-c2nc(-c3cc(S(=O)(=O)NCC(C)(C)O)ccc3C)cnc2N)nn1 [Example 83]", "ASSIGNED_CLASS": "Condition not met"}
{"COMPOUND": "COc1ncccc1-c1nc(-c2cc(S(=O)(=O)NCCC(C)(C)O)ccc2C)cnc1N [Example 119.4]", "ASSIGNED_CLASS": "Condition not met"}

Ask: Lab log: compare recorded IC50 with 4 µM; is it strictly lower for Cc1ccc(S(=O)(=O)NCCC(C)(C)O)cc1-c1cnc(N)c(-c2cnn(CC(C)C)c2)n1 [Example 119.32] ?
Result: Condition met

Ask: Subsequent entry: Cc1cc(F)c(S(=O)(=O)NCCC(C)(C)O)cc1-c1cnc(N)c(-c2cnn(C)c2)n1 [Example 115]
Result: Condition not met

Ask: # iterate: Cc1ccc(S(=O)(=O)NC[C@@](C)(O)C(F)(F)F)cc1-c1cnc(N)c(-n2cncn2)n1 [Example 127.22]
Result: Condition not met

Ask: Now consider Cc1ncc(-c2nc(-c3cc(S(=O)(=O)NCC4(O)COC4)ccc3C)cnc2N)s1 [Example 45.11] .
Result: Condition met

Ask: Proceed to Cc1cc(-c2nc(-c3cc(S(=O)(=O)N4CC5(CNC5)C4)ccc3C)cnc2N)ccn1 [Example 129.37]
Result: Condition not met

====

molecular target: PI 3-kinase delta (Homo sapiens, UniProt O00329); experiment: TR-FRET Adapta assay, assay F; conditions: read-out: Assay F PI3Kδ IC50
ENDPOINT_NAME: IC50 (µM)
Answers are plain numbers, in µM.

{"COMPOUND": "Cc1cc(-c2nc(-c3cc(S(=O)(=O)NC4CCC(CO)CC4)ccc3C)cnc2N)ccn1 (centres unmarked)", "IC50, µM": 0.25}
{"COMPOUND": "COc1cc(-c2nc(-c3cc(S(=O)(=O)NCCC(C)(C)O)ccc3C)cnc2N)ccn1", "IC50, µM": 0.13}
{"COMPOUND": "Cc1ncn(-c2nc(-c3cc(S(=O)(=O)NCCC(C)(C)O)ccc3C)cnc2N)n1", "IC50, µM": 0.24}

Record IC50 for all entries; do not skip any.
1. Cc1cc(-c2nc(-c3cc(S(=O)(=O)NCCC(C)(O)C(F)(F)F)ccc3C)cnc2N)ccn1 (centres unmarked)
2. Cc1cc(F)c(S(=O)(=O)NCCCO)cc1-c1cnc(N)c(-c2cnn(C)c2)n1

Result:
[0.26, 1.19]

Batch of 3 compounds: report IC50 for each.
1. Cc1ccc(S(=O)(=O)NCCC(C)(C)O)cc1-c1cnc(N)c(-n2cnc(C3CC3)n2)n1
2. CCN1CCC[C@@H]1CNS(=O)(=O)c1ccc(C)c(-c2cnc(N)c(-n3cncn3)n2)c1
3. Cc1noc(-c2nc(-c3cc(S(=O)(=O)NCC(C)(C)CO)ccc3C)cnc2N)n1

Result:
1. 0.07
2. 0.57
3. 0.69

====

target: PI 3-kinase alpha (Homo sapiens, UniProt P42336); assay: Kinase Glo Luminescent Kinase Assay (Kglo), assay A; type: biochemical; conditions: read-out: Assay A PI3Kα IC50
Sequence (P42336 whole entry): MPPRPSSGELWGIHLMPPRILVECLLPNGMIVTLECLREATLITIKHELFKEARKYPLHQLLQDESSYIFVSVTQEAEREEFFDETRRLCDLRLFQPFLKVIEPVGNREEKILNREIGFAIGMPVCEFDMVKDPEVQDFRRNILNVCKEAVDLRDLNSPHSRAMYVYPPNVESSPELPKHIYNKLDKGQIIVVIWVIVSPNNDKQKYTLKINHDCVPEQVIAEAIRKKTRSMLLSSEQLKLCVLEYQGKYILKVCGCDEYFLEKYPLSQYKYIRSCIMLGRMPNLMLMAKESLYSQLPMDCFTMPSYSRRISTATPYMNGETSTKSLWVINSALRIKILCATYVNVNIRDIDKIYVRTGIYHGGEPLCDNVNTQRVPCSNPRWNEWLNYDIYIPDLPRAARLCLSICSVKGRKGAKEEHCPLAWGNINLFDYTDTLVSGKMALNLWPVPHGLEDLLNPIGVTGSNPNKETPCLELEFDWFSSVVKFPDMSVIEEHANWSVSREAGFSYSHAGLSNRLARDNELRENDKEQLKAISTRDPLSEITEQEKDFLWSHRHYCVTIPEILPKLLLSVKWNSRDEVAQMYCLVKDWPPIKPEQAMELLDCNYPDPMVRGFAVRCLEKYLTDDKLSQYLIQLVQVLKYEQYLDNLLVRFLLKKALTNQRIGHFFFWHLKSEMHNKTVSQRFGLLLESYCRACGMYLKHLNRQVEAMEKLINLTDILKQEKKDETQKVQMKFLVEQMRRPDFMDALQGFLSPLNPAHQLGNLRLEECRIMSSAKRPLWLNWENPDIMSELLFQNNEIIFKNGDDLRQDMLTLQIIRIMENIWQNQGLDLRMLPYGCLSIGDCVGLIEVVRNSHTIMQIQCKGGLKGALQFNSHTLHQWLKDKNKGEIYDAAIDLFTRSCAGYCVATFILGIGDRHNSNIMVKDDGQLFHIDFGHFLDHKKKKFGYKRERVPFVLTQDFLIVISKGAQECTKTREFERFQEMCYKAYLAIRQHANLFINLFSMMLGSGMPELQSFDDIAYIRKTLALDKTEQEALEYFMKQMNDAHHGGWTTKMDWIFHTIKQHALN
ENDPOINT_NAME: pIC50
Answers are plain numbers, as −log10 of the molar value.

{"COMPOUND": "Cc1ncc(-c2nc(-c3cc(S(=O)(=O)NCC4(O)COC4)ccc3C)cnc2N)s1", "EXPERIMENTAL_SYSTEM": "PI 3-kinase alpha (Homo sapiens, UniProt P42336)", "pIC50": 7.40}
{"COMPOUND": "Cc1ccc(S(=O)(=O)NCCC(C)(C)O)cc1-c1cnc(N)c(-c2ccc(F)nc2)n1", "EXPERIMENTAL_SYSTEM": "PI 3-kinase alpha (Homo sapiens, UniProt P42336)", "pIC50": 6.31}
{"COMPOUND": "Cc1ccc(S(=O)(=O)NC[C@@H]2CCC(C)(C)O2)cc1-c1cnc(N)c(-n2cncn2)n1 [Example 127.40]", "EXPERIMENTAL_SYSTEM": "PI 3-kinase alpha (Homo sapiens, UniProt P42336)", "pIC50": 6.11}

// batch mode: one pIC50 value per listed entry
1. Cc1ccc(S(=O)(=O)NCC2(O)CCCCC2)cc1-c1cnc(N)c(-n2cncn2)n1
2. Cc1ccc(S(=O)(=O)NCC2(O)COC2)cc1-c1cnc(N)c(-n2cncn2)n1
3. Cc1ccc(S(=O)(=O)N2CCC(F)C2)cc1-c1cnc(N)c(-n2cncn2)n1 (centres unmarked)
4. COC(C)(C)CNS(=O)(=O)c1ccc(C)c(-c2cnc(N)c(-c3ccnc(C)c3)n2)c1

Result:
1: 6.01; 2: 5.96; 3: 6.49; 4: 5.72

Ask: Which pIC50 reading was recorded for the compound `Cc1ccc(S(=O)(=O)N[C@H]2CC[C@H](O)CC2)cc1-c1cnc(N)c(-c2cnn(C)c2)n1` ?
Result: 6.31

====

target: PI 3-kinase beta (Homo sapiens); assay: Cellular assay I1, p-Akt (S473) in Rat-1 cells, Surefire format; type: cell-based; conditions: non-asterisked data: version I1 (Surefire format), Rat-1 cells; read-out: Assay I PI3Kβ IC50
Sequence (P42338 whole entry): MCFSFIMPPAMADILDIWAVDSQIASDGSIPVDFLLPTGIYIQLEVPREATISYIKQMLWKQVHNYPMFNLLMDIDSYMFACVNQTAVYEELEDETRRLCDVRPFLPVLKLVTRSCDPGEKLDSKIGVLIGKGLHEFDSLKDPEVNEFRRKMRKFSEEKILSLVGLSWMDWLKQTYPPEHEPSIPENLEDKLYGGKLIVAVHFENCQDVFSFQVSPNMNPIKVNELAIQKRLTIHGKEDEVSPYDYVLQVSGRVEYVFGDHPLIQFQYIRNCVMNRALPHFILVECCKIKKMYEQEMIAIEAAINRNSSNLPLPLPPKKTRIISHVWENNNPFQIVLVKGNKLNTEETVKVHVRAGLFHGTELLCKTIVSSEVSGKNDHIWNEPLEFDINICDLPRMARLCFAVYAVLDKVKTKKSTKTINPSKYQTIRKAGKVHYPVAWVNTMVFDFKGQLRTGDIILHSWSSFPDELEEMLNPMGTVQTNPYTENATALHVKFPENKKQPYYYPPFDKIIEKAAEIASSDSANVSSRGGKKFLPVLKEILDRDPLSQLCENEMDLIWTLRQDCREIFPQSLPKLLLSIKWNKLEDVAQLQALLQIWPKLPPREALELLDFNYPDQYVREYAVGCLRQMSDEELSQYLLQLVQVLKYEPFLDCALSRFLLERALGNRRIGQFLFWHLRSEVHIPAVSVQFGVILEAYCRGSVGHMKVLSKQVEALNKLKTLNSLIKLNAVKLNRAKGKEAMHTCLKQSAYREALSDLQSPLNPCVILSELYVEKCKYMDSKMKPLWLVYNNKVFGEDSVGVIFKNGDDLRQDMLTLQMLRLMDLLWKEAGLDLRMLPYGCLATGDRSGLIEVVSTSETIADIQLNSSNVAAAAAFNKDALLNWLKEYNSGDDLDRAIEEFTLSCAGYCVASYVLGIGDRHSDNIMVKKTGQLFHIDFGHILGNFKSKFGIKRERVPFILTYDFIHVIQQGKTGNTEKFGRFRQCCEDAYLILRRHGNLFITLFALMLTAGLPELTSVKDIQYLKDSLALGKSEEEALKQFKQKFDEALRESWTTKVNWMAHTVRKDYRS
Sequence (Q63787 whole entry partner): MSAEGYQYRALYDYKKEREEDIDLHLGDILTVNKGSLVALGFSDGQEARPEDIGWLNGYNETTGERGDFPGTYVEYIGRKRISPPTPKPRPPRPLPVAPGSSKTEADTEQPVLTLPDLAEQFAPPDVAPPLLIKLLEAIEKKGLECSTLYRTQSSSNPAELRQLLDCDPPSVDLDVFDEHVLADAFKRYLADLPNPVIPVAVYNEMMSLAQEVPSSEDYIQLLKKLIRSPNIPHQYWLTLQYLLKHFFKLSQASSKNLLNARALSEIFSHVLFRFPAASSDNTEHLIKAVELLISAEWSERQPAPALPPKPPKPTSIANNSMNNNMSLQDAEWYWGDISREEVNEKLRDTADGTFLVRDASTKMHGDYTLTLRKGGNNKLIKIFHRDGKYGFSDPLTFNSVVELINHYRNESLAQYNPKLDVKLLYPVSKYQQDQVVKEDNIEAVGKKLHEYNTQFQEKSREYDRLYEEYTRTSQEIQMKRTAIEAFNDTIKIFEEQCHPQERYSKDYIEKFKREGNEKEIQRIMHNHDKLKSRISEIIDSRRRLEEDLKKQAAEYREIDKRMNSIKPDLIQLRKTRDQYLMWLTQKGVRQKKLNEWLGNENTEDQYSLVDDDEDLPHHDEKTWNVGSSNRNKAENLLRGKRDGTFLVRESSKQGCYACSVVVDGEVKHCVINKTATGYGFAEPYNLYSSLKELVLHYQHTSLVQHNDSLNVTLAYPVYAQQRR
Please go through the items and note down their pIC50.
Give bare numbers, as −log10 of the molar value.

{"COMPOUND": "Cc1ccc(S(=O)(=O)NCCC(C)(C)O)cc1-c1cnc(N)c(-c2cnc(Cl)cc2C)n1 [Example 119.9]", "ENDPOINT_RESULT": 5.51}
{"COMPOUND": "Cc1ccc(S(=O)(=O)NCCC(C)(C)O)cc1-c1cnc(N)c(-c2cnn(CCN3CCOCC3)c2)n1 [Example 119.41]", "ENDPOINT_RESULT": 5.49}
{"COMPOUND": "COCCCNS(=O)(=O)c1ccc(C)c(-c2cnc(N)c(-c3ccnc(C)c3)n2)c1 [Example 129.11]", "ENDPOINT_RESULT": 5.08}

List pIC50 for every entry below, keeping the order given.
1. Cc1cc(F)c(S(=O)(=O)NCCC(C)(C)O)cc1-c1cnc(N)c(-c2cnn(C)c2)n1 [Example 115]
2. Cc1ncc(-c2nc(-c3cc(S(=O)(=O)NCCCO)ccc3C)cnc2N)s1 [Example 10]
3. Cc1ncc(-c2nc(-c3cc(S(=O)(=O)N[C@H]4CC[C@@H](O)CC4)ccc3C)cnc2N)s1 [Example 87]
4. CCn1cc(-c2nc(-c3cc(S(=O)(=O)NCC(C)(C)O)ccc3C)cnc2N)nn1 [Example 83]
5. CCc1noc(-c2nc(-c3cc(S(=O)(=O)N4CCC(CO)CC4)ccc3C)cnc2N)n1 [Example 141]

Result:
1: 5.45; 2: 5.20; 3: 5.47; 4: 5.06; 5: 5.06

Could you tell me pIC50 for each of these compounds? They are listed below.
1. Cc1ccc(S(=O)(=O)N[C@H]2CC[C@H](O)CC2)cc1-c1cnc(N)c(-c2ccncc2)n1 [Example 11]
2. Cc1ccc(S(=O)(=O)NCCC(C)(C)O)cc1-c1cnc(N)c(-n2cnc(C3CC3)n2)n1 [Example 26]
3. Cc1ccc(S(=O)(=O)NCCC(C)(C)O)cc1-c1cnc(N)c(-c2cnn(CC(F)(F)F)c2)n1 [Example 130]
4. Cc1ccc(S(=O)(=O)NC2CCC(F)(F)CC2)cc1-c1cnc(N)c(-c2cnn(C)c2)n1 [Example 54]

Result:
1: 5.16; 2: 5.69; 3: 5.34; 4: 5.13
